Would you kindly list IC50 for each of these molecules?
# System name: recombinant human Bcl-2 D103Y protein (Homo sapiens (Human), UniProt P10415, D103Y)
# Assay info: Bcl-2-D103Y Biochemical Assay (TR-FRET)
# Assay context: TR-FRET, FITC labeled Bak peptide
# value in nM; strip the unit string

So what does the record say about IC50 for CC(C)c1ccccc1C1CN(Cc2ccccc2)CCN1C1CC2(CCN(c3ccc(C(=O)NS(=O)(=O)c4ccc(NCC5(F)CCOCC5)c([N+](=O)[O-])c4)c(Oc4cnc5[nH]ccc5c4)c3)CC2)C1 (centres unmarked) ?
0.49

So what does the record say about IC50 for COc1ccc(CN2CCN(C3CC4(C3)CN(c3ccc(C(=O)NS(=O)(=O)c5ccc(NC[C@H]6CC[C@](C)(O)CC6)c([N+](=O)[O-])c5)c(Oc5cnc6[nH]cc(F)c6c5)c3)C4)[C@H](c3ccccc3C(C)C)C2)cn1 ?
0.062

----------
# System name: recombinant human Bcl-2-G101V protein (Homo sapiens (Human), UniProt P10415, G101V)
# Assay info: Bcl-2-G101V TR-FRET Assay
# Type: binding
# Assay context: Bcl-2 G101V mutant, TR-FRET; read-out: Biochemical assay (IC50, nM) Bcl-2 G101V
Readout type: IC50
Be sure to follow the number with its unit.

Give recombinant human Bcl-2-G101V protein (Homo sapiens (Human), UniProt P10415, G101V) IC50 for COc1cc(CN2CCN(C3CC4(CCN(c5ccc(C(=O)NS(=O)(=O)c6ccc(NC[C@H]7CC[C@](C)(O)CC7)c([N+](=O)[O-])c6)c(Oc6cnc7[nH]ccc7c6)c5)CC4)C3)[C@H](c3ccccc3C(C)C)C2)ccc1C1CCCC1
10 nM

Give recombinant human Bcl-2-G101V protein (Homo sapiens (Human), UniProt P10415, G101V) IC50 for COc1ccc(CN2CCN(C3CC4(CCN(c5ccc(C(=O)NS(=O)(=O)c6ccc(NC[C@H]7CC[C@](C)(O)CC7)c([N+](=O)[O-])c6)c(Oc6cnc7[nH]ccc7c6)c5)CC4)C3)C(c3ccccc3C(C)C)C2)cc1Cl (some centres unmarked)
2.6 nM

----------
# System name: Recombinant human Bcl-2 protein (Homo sapiens (Human), UniProt P10415)
# Assay info: Bcl-2 TR-FRET Assay
# Assay type: binding
# Assay context: Bcl-2 wild type, TR-FRET; read-out: Biochemical assay (IC50, nM) Bcl-2 WT
Would you kindly list IC50 for each of these compounds?
# value in nM; strip the unit string

So what does the record say about IC50 for COc1cc(CN2CCN(C3CC4(CCN(c5ccc(C(=O)NS(=O)(=O)c6ccc(NC[C@H]7CC[C@](C)(O)CC7)c([N+](=O)[O-])c6)c(Oc6cnc7[nH]ccc7c6)c5)CC4)C3)C(c3ccccc3C(C)C)C2)cc(Cl)c1OC (some centres unmarked) ?
0.56

So what does the record say about IC50 for [2H]C([2H])([2H])Oc1ccc(CN2CCN(C3CC4(C3)CN(c3ccc(C(=O)NS(=O)(=O)c5ccc(NC[C@H]6CC[C@](C)(O)CC6)c([N+](=O)[O-])c5)c(Oc5cnc6[nH]cc(F)c6c5)c3)C4)[C@H](c3ccccc3C(C)C)C2)cc1OC([2H])([2H])[2H] ?
0.076

----------
# Assay info: Metabolic Stability Study, liver microsome incubation (human)
# Type: in vitro ADME
# Assay context: human liver microsomes 0.5 mg/mL, 1 μM compound, NADPH; NA^# = very stable, beyond the detection limits; read-out: T1/2 (min) Human
Readout type: half-life at 1 μM (min)
# value in min; strip the unit string

So what does the record say about half-life at 1 μM for COc1cc(CN2CCN(C3CC4(C3)CN(c3ccc(C(=O)NS(=O)(=O)c5ccc(NC[C@H]6CC[C@](C)(O)CC6)c([N+](=O)[O-])c5)c(Oc5cnc6[nH]cc(F)c6c5)c3)C4)[C@H](c3ccccc3C(C)C)C2)ccc1OC1CC1 ?
1020

So what does the record say about half-life at 1 μM for CC(C)c1ccccc1C1CN(Cc2ccc(C(F)(F)F)cc2)CCN1C1CC2(CCN(c3ccc(C(=O)NS(=O)(=O)c4ccc(NC[C@H]5CC[C@](C)(O)CC5)c([N+](=O)[O-])c4)c(Oc4cnc5[nH]ccc5c4)c3)CC2)C1 (stereo partly drawn) ?
997

So what does the record say about half-life at 1 μM for CC(C)c1ccccc1C1CN(Cc2ccccc2F)CCN1C1CC2(CCN(c3ccc(C(=O)NS(=O)(=O)c4ccc(NC[C@H]5CC[C@](C)(O)CC5)c([N+](=O)[O-])c4)c(Oc4cnc5[nH]ccc5c4)c3)CC2)C1 (stereo partly drawn) ?
153

So what does the record say about half-life at 1 μM for COc1cc(CN2CCN(C3CC4(C3)CN(c3ccc(C(=O)NS(=O)(=O)c5ccc(NC[C@H]6CC[C@](C)(O)CC6)c([N+](=O)[O-])c5)c(Oc5cnc6[nH]cc(F)c6c5)c3)C4)[C@H](c3ccccc3C(C)C)C2)ccc1C1CC1 ?
822

So what does the record say about half-life at 1 μM for COc1cc(CN2CCN(C3CC4(C3)CN(c3ccc(C(=O)NS(=O)(=O)c5ccc(NC[C@H]6CC[C@](C)(O)CC6)c([N+](=O)[O-])c5)c(Oc5cnc6[nH]cc(F)c6c5)c3)C4)[C@H](c3ccccc3C(C)C)C2)cc2c1OCCC2 ?
423

So what does the record say about half-life at 1 μM for COc1ccc(CN2CCN(C3CC4(CCN(c5ccc(C(=O)NS(=O)(=O)c6ccc(NCC7(F)CCOCC7)c([N+](=O)[O-])c6)c(Oc6cnc7[nH]ccc7c6)c5)CC4)C3)[C@H](c3ccccc3C(C)C)C2)cc1 (single isomer, unassigned) ?
533
